runDescription: Room-temperature solubility in solvents
Type: physicochemical
experimentalConditions: organic solvent or mixture, thermodynamic from solid; ACN, room temperature; read-out: Solubility S
propertyLabel: solubility

Could you share which solubility value was measured for Cn1cc2cc(-c3nn4ccc(C5CC5)nc4c(-c4ccc(OC(F)F)cc4)c3=O)ccc2n1 [Crystal form G] ?
~1100 µg/mL

###

runDescription: Dynamic solubility in buffers and water (HPLC, XRD of remaining solid)
Assay type: physicochemical
experimentalConditions: pH 1.0 buffer, simulated gastric fluid, thermodynamic from solid; pH 1.0, 4 h, 37 °C, feed concentration 10 mg/mL
propertyLabel: solubility at 4 h (µg/mL)
The reply should be a number in µg/mL, with the unit left off.

Form field: reported solubility at 4 h of Cn1cc2cc(-c3nn4ccc(C5CC5)nc4c(-c4ccc(OC(F)F)cc4)c3=O)ccc2n1 [Crystal form G]
0.16

###

Provide the reported IC50 of each item.
System: HCT116 MTAP-/- cells
runDescription: Cellular assay: cell proliferation inhibition (CellTiter-Glo)
Format: cell-based
experimentalConditions: Homo sapiens, HCT-116; incubated for 120 h

Need IC50 of Cn1cc2cc(-c3nn4ccc(C5CC5)nc4c(-c4ccc(OC(F)F)cc4)c3=O)ccc2n1 , thanks.
14.3 nM

What value of IC50 has been reported for the following molecule? O=c1c(-c2ccc3c(c2)OCO3)nn2ccc(C3CC3)nc2c1-c1ccc2c(c1)OCO2
119 nM

# lookup: IC50 of O=c1c(-c2ccc(OC(F)F)cc2)nn2ccc(C3CC3)nc2c1-c1ccc(OC(F)F)cc1
260 nM

###

runDescription: Room-temperature solubility in solvents
Assay type: physicochemical
experimentalConditions: organic solvent or mixture, thermodynamic from solid; EtOAc, room temperature; read-out: Solubility S
propertyLabel: solubility

Tell me the measured solubility of Cn1cc2cc(-c3nn4ccc(C5CC5)nc4c(-c4ccc(OC(F)F)cc4)c3=O)ccc2n1 [Crystal form G] , please.
1100 to 2200 µg/mL

###

runDescription: Heating experiment via DSC followed by XRD
Assay type: physicochemical
experimentalConditions: Heating temperature 150 °C
propertyLabel: After heating (crystal form)

Cn1cc2cc(-c3nn4ccc(C5CC5)nc4c(-c4ccc(OC(F)F)cc4)c3=O)ccc2n1 [Crystal form I] = Crystal form A
Cn1cc2cc(-c3nn4ccc(C5CC5)nc4c(-c4ccc(OC(F)F)cc4)c3=O)ccc2n1 [Crystal form P] = Crystal form A
Cn1cc2cc(-c3nn4ccc(C5CC5)nc4c(-c4ccc(OC(F)F)cc4)c3=O)ccc2n1 [Crystal form O] = Crystal form A
Cn1cc2cc(-c3nn4ccc(C5CC5)nc4c(-c4ccc(OC(F)F)cc4)c3=O)ccc2n1 [Crystal form M] = Crystal form A

###

runDescription: Dynamic solubility in buffers and water (HPLC, XRD of remaining solid)
Format: physicochemical
experimentalConditions: pH 6.8 buffer, aqueous buffer, thermodynamic from solid; pH 6.8, 24 h, 37 °C, feed concentration 10 mg/mL
propertyLabel: solubility at 24 h
Param answer (str): number followed by unit.

// returns reported solubility at 24 h for input Cn1cc2cc(-c3nn4ccc(C5CC5)nc4c(-c4ccc(OC(F)F)cc4)c3=O)ccc2n1 [Crystal form G]
0.06 µg/mL

###

Assign IC50 to each entry below.
Unit nM implied. Number only.

Short answer please: IC50, MAT2A enzyme (Homo sapiens, UniProt P31153), entry Cc1[nH]c2c(N3CCCCC3)c(-c3ccccc3)nn2c(=O)c1-c1ccc(O)cc1 [AGI-24512, reference compound]
26.8

What value of IC50 on MAT2A enzyme (Homo sapiens, UniProt P31153) does Cn1cc2cc(-c3nn4ccc(C5CC5)nc4c(-c4ccc(OC(F)F)cc4)c3=O)ccc2n1 [Example 3] have?
10.7

###

Can you tell me Cmax for the items I'm about to list?
runDescription: In vivo pharmacokinetic study in ICR mice
experimentalConditions: mouse; PO @ 10 mg/kg, male ICR mice, plasma; read-out: Peak concentration Cmax
Value expressed in µg/mL; do not type the unit.

Could you tell me which Cmax is on file for Cn1cc2cc(-c3nn4ccc(C5CC5)nc4c(-c4ccc(OC(F)F)cc4)c3=O)ccc2n1 ?
4.21

Dear colleague, I am looking for the recorded Cmax of the following compound: O=c1c(-c2ccc(OC(F)F)cc2)nn2ccc(C3CC3)nc2c1-c1ccc(OC(F)F)cc1
2.07

Give its Cmax value. Item: O=c1c(-c2ccc3c(c2)OCO3)nn2ccc(C3CC3)nc2c1-c1ccc2c(c1)OCO2
1.37

###

runDescription: In vivo pharmacokinetic study in ICR mice
experimentalConditions: mouse; PO @ 10 mg/kg, male ICR mice, plasma; read-out: Area under the curve AUC0-t
propertyLabel: AUC(0-t) (ng·h/mL)
# number only, unit ng·h/mL dropped from output

I have this molecule here, O=c1c(-c2ccc(OC(F)F)cc2)nn2ccc(C3CC3)nc2c1-c1ccc(OC(F)F)cc1 , and I need its recorded AUC(0-t).
45500

// query AUC(0-t) value for entry Cn1cc2cc(-c3nn4ccc(C5CC5)nc4c(-c4ccc(OC(F)F)cc4)c3=O)ccc2n1
78300

Fill in: AUC(0-t) of O=c1c(-c2ccc3c(c2)OCO3)nn2ccc(C3CC3)nc2c1-c1ccc2c(c1)OCO2 is ___
8730

###

runDescription: Room-temperature solubility in solvents
Type: physicochemical
experimentalConditions: organic solvent or mixture, thermodynamic from solid; IPAc, room temperature; read-out: Solubility S
propertyLabel: solubility

Report solubility for Cn1cc2cc(-c3nn4ccc(C5CC5)nc4c(-c4ccc(OC(F)F)cc4)c3=O)ccc2n1 [Crystal form G] please.
~1100 µg/mL

###

runDescription: Room-temperature solubility in solvents
Format: physicochemical
experimentalConditions: organic solvent or mixture, thermodynamic from solid; MTBE, room temperature; read-out: Solubility S
propertyLabel: solubility

Need solubility, item Cn1cc2cc(-c3nn4ccc(C5CC5)nc4c(-c4ccc(OC(F)F)cc4)c3=O)ccc2n1 [Crystal form G]
< 1100 µg/mL

###

runDescription: Room-temperature solubility in solvents
Assay type: physicochemical
experimentalConditions: organic solvent or mixture, thermodynamic from solid; MeOH, room temperature; read-out: Solubility S
propertyLabel: solubility

Could you tell me which solubility is on file for Cn1cc2cc(-c3nn4ccc(C5CC5)nc4c(-c4ccc(OC(F)F)cc4)c3=O)ccc2n1 [Crystal form G] ?
3710 to 5500 µg/mL

###

runDescription: Room-temperature solubility in solvents
Format: physicochemical
experimentalConditions: organic solvent or mixture, thermodynamic from solid; MEK, room temperature; read-out: Solubility S
propertyLabel: solubility

Which value of solubility has been reported for Cn1cc2cc(-c3nn4ccc(C5CC5)nc4c(-c4ccc(OC(F)F)cc4)c3=O)ccc2n1 [Crystal form G] in the records?
5300 to 10500 µg/mL

Each recorded value in this set is attributed to patent EP4729518A1.
